Reported concentration at 24 h is given for each of the following compounds.
- Test: Dog plasma metabolite profiles after single 15 mg/kg oral capsule of [14C]DCDQ
- Assay type: in vivo, beagle dogs
- Assay context: male, beagle, dog, plasma, oral, 15 mg/kg, 24 hr, dog 3; read-out: Estimated plasma concentration in dogs
Measurement kind: concentration at 24 h (µg/mL)

Compound | Readout value
OC1[C@@H]2CCC[C@@H]2c2cccc3c2N1CCNC3 (stereo partly drawn) [Metabolite M2, hydroxy DCDQ] | 0.135
c1cc2c3c(c1)[C@H]1CCC[C@H]1CN3CCNC2 [DCDQ, reference compound] | 0.0438
OC1CN2C[C@@H]3CCC[C@@H]3c3cccc(c32)CN1 (stereo partly drawn) [Metabolite M1, hydroxy DCDQ] | 0.125

----------
- Test: Rat urinary excretion and metabolite profiles after single oral 5 mg/kg [14C]DCDQ
- Assay type: in vivo, Sprague-Dawley rats
- Assay context: 0-8 hr, oral 5 mg/kg, mean n = 3
- Method: At sacrifice, blood samples were collected by cardiac puncture into tubes containing EDTA as the anticoagulant and placing them on ice. Aliquots of 50 μL were removed for combustion and determination of radioactivity content. […] The biological specimens and aliquots of the dosing solution at pre- and post-dose were stored at approximately −70° C. until analyzed. Plasma (20 μL) and urine (50 μL) aliquots were analyzed for radioactivity concentrations. […]
Decision: Chromatographic distribution of radioactivity in male rat urine compared against 10%; not below it gives MET, below it gives NOT MET.

Compound | Class name
O=C1CC[C@@H]2c3cccc4c3N(CCNC4)C[C@H]12 [Metabolite M7, 17-keto DCDQ] | NOT MET
OC1[C@@H]2CCC[C@@H]2c2cccc3c2N1CCNC3 (some centres unmarked) [Metabolite M2, hydroxy DCDQ] | NOT MET
OC1CNCc2cccc3c2N1C[C@@H]1CCC[C@H]31 (some centres unmarked) [Metabolite M10, hydroxy DCDQ] | NOT MET
OC1CN2C[C@@H]3CCC[C@@H]3c3cccc(c32)CN1 (some centres unmarked) [Metabolite M1, hydroxy DCDQ] | MET
c1cc2c3c(c1)[C@H]1CCC[C@H]1CN3CCNC2 [DCDQ, reference compound] | NOT MET

----------
- Test: Dog plasma metabolite profiles after single 15 mg/kg oral capsule of [14C]DCDQ
- Assay type: in vivo, beagle dogs
- Assay context: male, beagle, dog, plasma, oral, 15 mg/kg, 2 hr, dog 1; read-out: Estimated plasma concentration in dogs
Measurement kind: concentration at 2 h (ng/mL)

Compound | Measurement kind | Readout value
c1cc2c3c(c1)[C@H]1CCC[C@H]1CN3CCNC2 [DCDQ, reference compound] | concentration at 2 h | 39.6
OC1CN2C[C@@H]3CCC[C@@H]3c3cccc(c32)CN1 (stereo partly drawn) [Metabolite M1, hydroxy DCDQ] | concentration at 2 h | 30.1
[O-][N+]12CCN=Cc3cccc(c31)[C@H]1CCC[C@H]1C2 (stereo partly drawn) [Metabolite M5, DCDQ imine N-oxide] | concentration at 2 h | 43.1

----------
- Test: Rat urinary excretion and metabolite profiles after single oral 5 mg/kg [14C]DCDQ
- Type: in vivo, Sprague-Dawley rats
- Assay context: 8-24 hr, oral 5 mg/kg, mean n = 3
Measurement kind: Percentage of dose for urinary metabolites in rats (%)

Compound | Uom | Readout value
c1cc2c3c(c1)[C@H]1CCC[C@H]1CN3CCNC2 [DCDQ, reference compound] | % | 0.51
O=C1CC[C@@H]2c3cccc4c3N(CCNC4)C[C@H]12 [Metabolite M7, 17-keto DCDQ] | % | 3.44
OC1[C@@H]2CCC[C@@H]2c2cccc3c2N1CCNC3 (some centres unmarked) [Metabolite M2, hydroxy DCDQ] | % | 1.94
OC1CNCc2cccc3c2N1C[C@@H]1CCC[C@H]31 (some centres unmarked) [Metabolite M10, hydroxy DCDQ] | % | 0.91
OC1CN2C[C@@H]3CCC[C@@H]3c3cccc(c32)CN1 (some centres unmarked) [Metabolite M1, hydroxy DCDQ] | % | 7.74

----------
- Test: Rat brain radioactivity content and metabolite profiles after single oral 5 mg/kg [14C]DCDQ
- Type: in vivo, Sprague-Dawley rats
- Assay context: Sprague-Dawley, rat, brain, oral, 5 mg/kg; male rats, 8 hr, mean ± S.D., N = 3; read-out: Brain concentration, DCDQ (estimated)
Measurement kind: concentration at 8 h (ng/g)

Compound | Readout value
c1cc2c3c(c1)[C@H]1CCC[C@H]1CN3CCNC2 [DCDQ, reference compound] | 2930

----------
- Test: Rat plasma metabolite profiles after single oral 5 mg/kg [14C]DCDQ
- Type: in vivo, Sprague-Dawley rats
- Assay context: Sprague-Dawley, rat, plasma, female, 8 hr, mean n = 3, read-out: Estimated plasma concentration in rats
concentration at 8 h values by entry
Measurement kind: concentration at 8 h (ng/mL)

Compound | Readout value
OC1[C@@H]2CCC[C@@H]2c2cccc3c2N1CCNC3 (stereo partly shown) [Metabolite M2, hydroxy DCDQ] | 4.4
O=S(=O)(O)N1CCN2C[C@@H]3CCC[C@@H]3c3cccc(c32)C1 [Metabolite M12, DCDQ sulfamate] | 11.8
CC(=O)N1Cc2cccc3c2N(C[C@@H]2CCC[C@H]32)C(O)C1 (stereo partly shown) [Metabolite M11, acetylated hydroxy DCDQ] | 16.6
O=S(=O)(O)N1CCN2CC3=CCC=C3c3cccc(c32)C1 [Metabolite M14, di-dehydro DCDQ sulfamate] | 16.5

----------
- Test: Concentrations of DCDQ and DCDQ carbamoyl glucuronide (M6) in human plasma, LC/SRM (Table 34)
- Assay type: in vivo, healthy human subjects
- Assay context: human, plasma, oral, 300 mg, plasma, 300 mg (fasted), 24 hr, Mean ± S.D.; read-out: M6 concentration in plasma
Measurement kind: concentration at 24 h (ng/mL)

Molecule | Measurement kind | Readout value
O=C(O)[C@H]1O[C@@H](OC(=O)N2CCN3C[C@@H]4CCC[C@@H]4c4cccc(c43)C2)[C@H](O)[C@@H](O)[C@@H]1O [Metabolite M6, carbamoyl glucuronide of DCDQ] | concentration at 24 h | 28.9

----------
Chromatographic distribution of radioactivity in dog urine values by entry
- Test: Dog urinary excretion and metabolite profiles after oral capsule of [14C]DCDQ
- Assay type: in vivo, beagle dogs
- Assay context: 8-24 hr, dog 1
Measurement kind: Chromatographic distribution of radioactivity in dog urine (%)

Compound | Readout value
O=C(O)[C@H]1O[C@@H](OC(=O)N2CCN3C[C@@H]4CCC[C@@H]4c4cccc(c43)C2)[C@H](O)[C@@H](O)[C@@H]1O [Metabolite M6, carbamoyl glucuronide of DCDQ] | 6.1
OC1[C@@H]2CCC[C@@H]2c2cccc3c2N1CCNC3 (stereo partly shown) [Metabolite M2, hydroxy DCDQ] | 21
c1cc2c3c(c1)[C@H]1CCC[C@H]1CN3CCNC2 [DCDQ, reference compound] | 9.5
OC1CN2C[C@@H]3CCC[C@@H]3c3cccc(c32)CN1 (stereo partly shown) [Metabolite M1, hydroxy DCDQ] | 8.3

----------
- Test: Rat plasma metabolite profiles after single oral 5 mg/kg [14C]DCDQ
- Assay type: in vivo, Sprague-Dawley rats
- Assay context: Sprague-Dawley, rat, plasma, male, 2 hr, mean n = 3, read-out: Estimated plasma concentration in rats
Counter-ions that a name gives are not always drawn.
Measurement kind: concentration at 2 h

Compound | Readout value
O=S(=O)(O)OC1CC[C@@H]2c3cccc4c3N(CCNC4)CC12 (stereo partly shown) [Metabolite M13, 17-hydroxy DCDQ sulfate] | 11.6 ng/mL
OC1CNCc2cccc3c2N1C[C@@H]1CCC[C@H]31 (stereo partly shown) [Metabolite M10, hydroxy DCDQ] | 23.7 ng/mL
CC(=O)N1Cc2cccc3c2N(C[C@@H]2CCC[C@H]32)C(O)C1 (stereo partly shown) [Metabolite M11, acetylated hydroxy DCDQ] | 37.2 ng/mL
c1cc2c3c(c1)[C@H]1CCC[C@H]1CN3CCNC2 [DCDQ, reference compound] | 86.9 ng/mL
OC1CN2C[C@@H]3CCC[C@@H]3c3cccc(c32)CN1 (stereo partly shown) [Metabolite M1, hydroxy DCDQ] | 88.4 ng/mL
O=C1CC[C@@H]2c3cccc4c3N(CCNC4)C[C@H]12 [Metabolite M7, 17-keto DCDQ] | 63.6 ng/mL
OC1[C@@H]2CCC[C@@H]2c2cccc3c2N1CCNC3 (stereo partly shown) [Metabolite M2, hydroxy DCDQ] | 32.3 ng/mL

----------
- Test: Rat plasma metabolite profiles after single oral 5 mg/kg [14C]DCDQ
- Format: in vivo, Sprague-Dawley rats
- Assay context: male, 2 hr, mean n = 3
Where a name gives a salt, the structure may show the parent alone.
Could you mark each record true (1) if its Chromatographic distribution of radioactivity in rat plasma falls strictly under 10%, and false (0) if it equals or exceeds it?

Compound | Class name
OC1CNCc2cccc3c2N1C[C@@H]1CCC[C@H]31 (stereo partly drawn) [Metabolite M10, hydroxy DCDQ] | true (1)
c1cc2c3c(c1)[C@H]1CCC[C@H]1CN3CCNC2 [DCDQ, reference compound] | false (0)
OC1CN2C[C@@H]3CCC[C@@H]3c3cccc(c32)CN1 (stereo partly drawn) [Metabolite M1, hydroxy DCDQ] | false (0)
O=S(=O)(O)OC1CC[C@@H]2c3cccc4c3N(CCNC4)CC12 (stereo partly drawn) [Metabolite M13, 17-hydroxy DCDQ sulfate] | true (1)
CC(=O)N1Cc2cccc3c2N(C[C@@H]2CCC[C@H]32)C(O)C1 (stereo partly drawn) [Metabolite M11, acetylated hydroxy DCDQ] | true (1)
OC1[C@@H]2CCC[C@@H]2c2cccc3c2N1CCNC3 (stereo partly drawn) [Metabolite M2, hydroxy DCDQ] | true (1)
